- Test system: Rattus norvegicus
- procedure-text: Diuretic effect was determined after peroral administration at a dose of 10 mg/kg in rats
- Format: functional, Urine
- particulars: route oral
# cutoff 9 ml 4hr-1 applies to Urine volume; >= gives Criterion met, < gives Criterion not met

{"columns": ["molecule", "label"],
 "data": [
  ["O=C(Nc1ccc(C(=O)N2CCCN(Cc3cccnc3)c3sccc32)cc1)c1ccccc1-c1ccccc1", "Criterion not met"],
  ["CN(C)C1CCN(C(=O)COc2cc(C(=O)N3CCCCc4sccc43)ccc2NC(=O)c2ccccc2-c2ccccc2)CC1", "Criterion met"],
  ["COc1cc(C(=O)N2CCCC(N(C)C)c3sccc32)ccc1NC(=O)c1ccccc1-c1ccccc1 (centres undefined)", "Criterion met"],
  ["CN1CCCN(CCCOc2cc(C(=O)N3CCCCc4sccc43)ccc2NC(=O)c2ccccc2-c2ccccc2)CC1", "Criterion met"],
  ["CN(C)C1CCN(C(=O)CCCOc2cc(C(=O)N3CCCCc4sccc43)ccc2NC(=O)c2ccccc2-c2ccccc2)CC1", "Criterion met"],
  ["CN1CCCN(C(=O)CCCOc2cc(C(=O)N3CCCCc4sccc43)ccc2NC(=O)c2ccccc2-c2ccccc2)CC1", "Criterion met"],
  ["O=C(Nc1ccc(C(=O)N2CCCCc3sccc32)cc1OCCCC(=O)N1CCC(N2CCCCC2)CC1)c1ccccc1-c1ccccc1", "Criterion not met"],
  ["CN(C)CCN1CCCN(C(=O)c2ccc(NC(=O)c3ccccc3-c3ccccc3)cc2)c2ccsc21", "Criterion not met"],
  ["CN1CCN(CCN2CCCN(C(=O)c3ccc(NC(=O)c4ccccc4-c4ccccc4)cc3)c3ccsc32)CC1", "Criterion not met"]
]}

src = ChEMBL document CHEMBL1139452
